Taken from PubChem BioAssay AID1159580.

- protocol-notes: chemical genetic growth profiling, strain panel (AID 1159580);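 also: tested at 20 µM; growth read once vehicle control cultures reached saturation at 30 °C; 1 = growth at the plate median or of vehicle wells; lower values mean less growth of the strain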
- condition-description: S. cerevisiae deletion strains, growth OD, locus YLR058C, strain SHM2, hits give low values
Screen size: about 5,500 compounds; about 2,000 (36%) were called active. Roughly 18% stayed inconclusive and do not appear here. The list shows a part of the results.
normalized growth for assorted compounds
No unit in the answer, please; the number alone is enough.

COc1cc(O)c(C(=O)O)c(O)c1	1
COc1ccc2c(=O)c(-c3cc4c(cc3OC)OCO4)coc2c1	1.02

Proceeding to the next compound to report its normalized growth.
Query CCNc1nc(Cl)nc(NC(C)C)n1 yields normalized growth of 1.02

---

normalized growth for assorted compounds
- protocol-notes: chemical genetic growth profiling, strain panel (AID 1159580)
- condition-description: S. cerevisiae deletion strains, growth OD, locus YMR223W, strain ubp8, hits give low values
Hit rate of the full screen: of about 5,500 compounds, about 2,000 (36%) were called active. Another 18% or so got no clear call; they are omitted. This is one part of the list.
No unit in the answer, please; the number alone is enough.

CCOc1nc2cccc(C(=O)OC(C)OC(=O)OC3CCCCC3)c2n1Cc1ccc(-c2ccccc2-c2nn[nH]n2)cc1 (stereo not given)	0.984

Query CC(=O)O[C@@H]1CC2C(C)(C)C(=O)[C@@H]3O[C@@H]3[C@]2(C)C2CC[C@]3(C)C(=CC(=O)O[C@H]3c3ccoc3)[C@@]21C (stereo not given in full) yields normalized growth of 1

Query O=c1[nH]c2ccccc2n1C1CCN(CCCC(c2ccc(F)cc2)c2ccc(F)cc2)CC1 yields normalized growth of 0.978

Query C[N+]1(C)C2CC[C@H]1CC(OC(=O)C(O)c1ccccc1)C2 (stereo not given in full) yields normalized growth of 1.02

Query COc1ccc2c(=O)c(-c3cc4c(cc3OC)OCO4)coc2c1 yields normalized growth of 1.01

Query O=c1n(CCCN2CCN(c3cccc(Cl)c3)CC2)nc2ccccn12 yields normalized growth of 1.01

Query CC(C)=CCc1c(O)cc2occ(-c3ccc4c(c3)OCO4)c(=O)c2c1O yields normalized growth of 1.02

Query CC(=O)OC1CCC23C(=O)OC45CCC(C6=CC(=O)OC6)C4(C)CCC2C5CCC3(O)C1 (stereo not given) yields normalized growth of 1

Query COC(=O)C[C@H]1C(C)(C)[C@@H](OC(C)=O)[C@@H]2CC3C4CC(=O)O[C@@H](c5ccoc5)[C@]4(C)CCC3[C@@]1(C)C2=O (stereo not given in full) yields normalized growth of 1.01

Query O=c1c(-c2ccc3c(c2)OCO3)coc2cc(O)ccc12 yields normalized growth of 0.976

Query Cn1cnc([N+](=O)[O-])c1Sc1ncnc2nc[nH]c12 yields normalized growth of 0.994

Query CCCc1nc(C(C)(C)O)c(C(=O)OCc2oc(=O)oc2C)n1Cc1ccc(-c2ccccc2-c2nn[nH]n2)cc1 yields normalized growth of 0.995

Query COc1ccc2c(=O)c(CC(=O)O)coc2c1 yields normalized growth of 0.994

Query O=[N+]([O-])/N=C1/NCCN1Cc1ccc(Cl)cc1 yields normalized growth of 0.993

Query N#Cc1ccc2c(c1)N(CCCN1CCC(O)CC1)c1ccccc1S2 yields normalized growth of 1.01

---

normalized growth for assorted compounds
- protocol-notes: chemical genetic growth profiling, strain panel (AID 1159580)
- condition-description: S. cerevisiae deletion strains, growth OD, locus YNL183C, strain NPR1, hits give low values
In all, about 5,500 compounds went through this assay and about 2,000 (36%) were called active. Roughly 18% stayed inconclusive and do not appear here. The list shows a part of the results.
No unit in the answer, please; the number alone is enough.

A selection of reference data follows.
COc1cc(O)cc(O)c1C(C)=O	0.907
O=C(NNc1c(Cl)cccc1Cl)c1ccc([N+](=O)[O-])o1	0.935
N#C/C(=N/Nc1ccc(Cl)cc1)C(=O)C1CC1	0.551
C(=NC(N=Cc1ccccc1)c1ccccc1)c1ccccc1 (stereo not drawn)	0.946
O=C(O)c1cccc2cccc(C(=O)O)c12	0.112
C[C@]12CCC3C(CC[C@H]4C[C@@H](O)CC[C@]34C)C1CCC2=O (stereo partly drawn)	0.874

Query O=C(/C=C/C(=O)Oc1ccccc1C(=O)O)Oc1ccccc1C(=O)O yields normalized growth of 0.976

Query COP(=S)(OC)SCn1nnc2ccccc2c1=O yields normalized growth of 0.891

Query CCCc1nc(C(C)(C)O)c(C(=O)OCc2oc(=O)oc2C)n1Cc1ccc(-c2ccccc2-c2nn[nH]n2)cc1 yields normalized growth of 0.963

Query CCOC(=O)C1C(c2ccc(Br)cc2)C(C(=O)OCC)C(O)(C(F)(F)F)NC1(O)C(F)(F)F (stereo not drawn) yields normalized growth of 0.942

Query CN(C)CC(=O)OC[C@@H](O)[C@@H](O)[C@H](O)[C@@H](O)C(=O)O yields normalized growth of 0.896

Query C[N+]1(C)C2CC[C@H]1CC(OC(=O)C(O)c1ccccc1)C2 (stereo partly drawn) yields normalized growth of 0.956

Query CCC(=O)O[C@H]1CCC2C3CCc4cc(O)ccc4C3CC[C@@]21C (stereo partly drawn) yields normalized growth of 0.755

Query COc1cc(O)c(C(C)=O)c(OC)c1 yields normalized growth of 0.918

Query COc1cc(O)c(C)c(O)c1 yields normalized growth of 0.92

Query O=c1ccc2cc(O[C@@H]3O[C@H](CO)[C@@H](O)[C@H](O)[C@H]3O)c(O)cc2o1 yields normalized growth of 0.962

---

- protocol-notes: chemical genetic growth profiling, strain panel (AID 1159580);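 also: tested at 20 µM; growth read once vehicle control cultures reached saturation at 30 °C; 1 = growth at the plate median or of vehicle wells; lower values mean less growth of the strain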
- condition-description: S. cerevisiae deletion strains, growth OD, locus YJR066W, strain TOR1, hits give low values
Screen size: about 5,500 compounds; about 2,000 (36%) were called active. Roughly 18% stayed inconclusive and do not appear here. The list shows a part of the results.
measurement-kind: normalized growth
No unit in the answer, please; the number alone is enough.

COc1cc(O)cc(O)c1C(C)=O	0.916

Query COc1cc(O)c(C(C)=O)c(O)c1 yields normalized growth of 0.979

Query CC(=O)O[C@H]1CC2CCC3C(CC[C@@]4(C)C3C[C@H]([N+]3(C)CCCCC3)[C@@H]4OC(C)=O)[C@@]2(C)C[C@@H]1[N+]1(C)CCCCC1 (stereo partly specified) yields normalized growth of 0.979

Query COc1c(O)cc(O)cc1O yields normalized growth of 0.977

Query COc1cc(O)c(C(C)=O)c(OC)c1 yields normalized growth of 0.89

Query CC(NC(=S)Nc1ccc(Oc2ccc(Cl)cc2)cc1)c1ccccc1 (stereo unspecified) yields normalized growth of 0.981

---

- protocol-notes: chemical genetic growth profiling, strain panel (AID 1159580);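 also: tested at 20 µM; growth read once vehicle control cultures reached saturation at 30 °C; 1 = growth at the plate median or of vehicle wells; lower values mean less growth of the strain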
- condition-description: S. cerevisiae deletion strains, growth OD, locus YMR205C, strain PFK2 (second series)
In all, about 5,500 compounds went through this assay and about 2,000 (36%) were called active. Roughly 18% stayed inconclusive and do not appear here. Cut-off read from the data, not from the text of the source: active = normalized growth mostly below about 0.91 (no sharp cut-off); inconclusive = no clear call, values can overlap the other calls; inactive = mostly above about 0.92. This is one part of the list.
I would appreciate it if you answered using one of these outcomes: active, inactive

N/C(=N/OC(=O)c1ccccc1Cl)c1ccc2nonc2c1	inactive
Cc1c(C(=O)NCCNc2ccc(C(F)(F)F)cc2[N+](=O)[O-])cnn1-c1ccc(F)cc1	inactive

Consider the additional molecule presented here.
Q) Name the outcome recorded for CCCCc1ccc(N=CNO)c(C)c1 in the assay.
A) active

---

- protocol-notes: chemical genetic growth profiling, strain panel (AID 1159580);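 also: tested at 20 µM; growth read once vehicle control cultures reached saturation at 30 °C; 1 = growth at the plate median or of vehicle wells; lower values mean less growth of the strain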
- condition-description: S. cerevisiae deletion strains, growth OD, locus YNL224C, strain SQS1
Hit rate of the full screen: of about 5,500 compounds, about 2,000 (36%) were called active. Another 18% or so got no clear call; they are omitted. Cut-off read from the data, not from the text of the source: active = normalized growth mostly below about 0.91 (no sharp cut-off); inconclusive = no clear call, values can overlap the other calls; inactive = mostly above about 0.92. Some of the results follow.
I would appreciate it if you answered using one of these outcomes: 1.0 = active, 0.0 = inactive

NC(N)=Nc1ccc2[nH]c3c(c2c1)C[C@@]1(O)[C@H]2Cc4ccc(O)c5c4[C@@]1(CCN2CC1CC1)[C@H]3O5	0.0
N[C@@H](CCCC(=O)O)C(=O)O	0.0
CSc1nc(N)c2ncn([C@@H]3O[C@H](COP(=O)(O)OP(=O)(O)O)[C@H](O)C3O)c2n1 (stereo partly drawn)	0.0
COc1ccc2c3c1O[C@H]1C(=O)CC[C@@]4(O)C(C2)N(CC2CC2)CCC314 (stereo partly drawn)	0.0
Nn1nnc2ccccc21	0.0
CC[C@@H]1Cc2cc(O)ccc2C2=C1c1ccc(O)cc1C[C@H]2CC	1.0

Q) Name the outcome recorded for NC(=S)c1ccc[n+]([C@@H]2O[C@@H](COP(=O)([O-])OP(=O)(O)OC[C@H]3O[C@@H](n4cnc5c(N)ncnc54)C(OP(=O)(O)O)[C@H]3O)C(O)C2O)c1 (stereo partly drawn) in the assay.
A) 0.0

Q) Name the outcome recorded for CCCN(CCC)C1CCc2ccc(O)cc2C1 (stereo not drawn) in the assay.
A) 0.0

Q) Name the outcome recorded for CC(=O)O[C@H]1CC2(C)[C@@H](C[C@@H](O)[C@H]3[C@@]4(C)CC[C@@H](O)[C@@H](C)[C@@H]4CC[C@@]32C)C1=C(CCC=C(C)C)C(=O)O (stereo partly drawn) in the assay.
A) 0.0

Q) Name the outcome recorded for CCCN(CCC)[C@@H]1CCc2ccc(O)cc2C1 in the assay.
A) 0.0

Q) Name the outcome recorded for C[C@]12CC[C@@H](O)CC1CC[C@@H]1[C@@H]2CC[C@]2(C)C(=O)CC[C@@H]12 (stereo partly drawn) in the assay.
A) 0.0

Q) Name the outcome recorded for Cn1cnc2c(NC3CCCC3)ncnc21 in the assay.
A) 0.0

Q) Name the outcome recorded for O=c1oc(Cl)c(Cl)c2ccccc12 in the assay.
A) 0.0
